Target: FLJ39196 clone-derived protein (human neurocalcin δ) (Homo sapiens, UniProt P61601)
Construct: A human full-length cDNA clone was expressed as a protein with an N-terminal His tag; His tag (N); made in house; host or cells: Escherichia coli BL21star(DE3)pLysS (pDEST17 Gateway expression plasmid)
Experiment: SEC/MS interaction analysis (size exclusion spin column and mass analysis) with FLJ39196 clone-derived protein
Assay type: binding
Details: protein 0 μM (protein-free reference), compound 1 μM
readout: spectral intensity of the compound in the SEC spin column filtrate (protein fraction)
Please give the numeric answer without any surrounding text.

O=C1CN=C(c2ccccc2)c2cc(Cl)ccc2N1CC1CC1; 45379226
CC(NCCC(c1ccccc1)c1ccccc1)c1ccccc1 (stereo not shown); 18341826
CC(C)/N=c1\cc2n(-c3ccc(Cl)cc3)c3ccccc3nc-2cc1Nc1ccc(Cl)cc1; 1592610
CC(O)(CS(=O)(=O)c1ccc(F)cc1)C(=O)Nc1ccc(C#N)c(C(F)(F)F)c1 (stereo not shown) [Bicaltamide]; 196020

Moving on to the next compound.
[in] Fill in: spectral intensity of the compound in the SEC spin column filtrate (protein fraction) of "CN1CCN(CCCN2c3ccccc3Sc3ccc(C(F)(F)F)cc32)CC1" is ___
[out] 6645734

Entry source: patent US8178077B2
